TARGET_SYSTEM: P2X7 receptor (Homo sapiens, UniProt Q99572)
TEST_NAME: Screen Quest Fluo-8 No Wash Calcium Assay (Bz-ATP evoked Ca2+ influx, FLIPR)
Type: cell-based
Parameters: hP2X7 (IC50; nM); other: hP2X7; HEK-293 cells stably transfected with P2X7 receptor, Bz-ATP at EC80, Fluo-8 NW; potency
CONDITION_SET: hP2X7; HEK-293 cells stably transfected with P2X7 receptor, Bz-ATP at EC80, Fluo-8 NW; potency ranges A-D
// reported IC50 for each item listed

MOLECULE	IC50
O=c1onc(Cc2c(F)cccc2Cl)n1CC1CC1	> 10000 nM
O=c1onc(Cc2c(F)cccc2Cl)n1Cc1ccccc1C(F)(F)F	1000 to 10000 nM
O=c1onc(Cc2c(F)cccc2Cl)n1CC1CCCCCC1	< 200 nM
O=c1onc(Cc2cccnc2)n1CC1CCCCC1	1000 to 10000 nM
Cc1cc(Cn2c(Cc3c(F)cccc3Cl)noc2=O)n(C)n1	> 10000 nM
O=c1onc(Cc2ccccc2F)n1Cc1ccc(F)cc1	1000 to 10000 nM
O=c1onc(Cc2ccccc2C(F)(F)F)n1CC1CCCCC1	200 to 1000 nM
O=c1onc(Cc2c(F)cccc2Cl)n1CC1COCCO1 (centres unmarked)	> 10000 nM
O=c1onc(CN2CCC(F)(F)CC2)n1CC1CCCCC1	> 10000 nM
O=c1onc(Cc2c(F)cccc2Cl)n1Cc1cccc(Cl)c1Cl	200 to 1000 nM
O=c1onc(CCc2c(F)cccc2Cl)n1CC1CCCCC1	1000 to 10000 nM
O=c1onc(CC2CCC(F)(F)CC2)n1Cc1ccccc1Cl	< 200 nM
O=c1onc(Cc2ccc(F)cc2)n1Cc1ccc(F)cc1Cl	1000 to 10000 nM
O=c1onc(Cc2ccc(F)cc2Cl)n1Cc1ccc(F)cc1	200 to 1000 nM
O=c1onc(Cc2ccccc2)n1Cc1ccc(F)cc1	1000 to 10000 nM
O=c1onc(Cc2ccc(F)cc2Cl)n1CC1CCCCC1	200 to 1000 nM
O=c1onc(Cc2cccc(C(F)(F)F)c2Cl)n1Cc1ccc(F)cc1	> 10000 nM
O=c1onc(Cc2c(F)cccc2Cl)n1CC1CCC2(CC1)OCCO2	200 to 1000 nM
O=c1onc(CN2CCc3ccccc3C2)n1Cc1c(F)cccc1Cl	1000 to 10000 nM
CC1CC(F)(F)CCN1Cc1noc(=O)n1Cc1c(F)cccc1Cl (centres unmarked)	< 200 nM

###

TARGET_SYSTEM: P2X7 receptor (Homo sapiens)
Sequence (Q99572 1-595): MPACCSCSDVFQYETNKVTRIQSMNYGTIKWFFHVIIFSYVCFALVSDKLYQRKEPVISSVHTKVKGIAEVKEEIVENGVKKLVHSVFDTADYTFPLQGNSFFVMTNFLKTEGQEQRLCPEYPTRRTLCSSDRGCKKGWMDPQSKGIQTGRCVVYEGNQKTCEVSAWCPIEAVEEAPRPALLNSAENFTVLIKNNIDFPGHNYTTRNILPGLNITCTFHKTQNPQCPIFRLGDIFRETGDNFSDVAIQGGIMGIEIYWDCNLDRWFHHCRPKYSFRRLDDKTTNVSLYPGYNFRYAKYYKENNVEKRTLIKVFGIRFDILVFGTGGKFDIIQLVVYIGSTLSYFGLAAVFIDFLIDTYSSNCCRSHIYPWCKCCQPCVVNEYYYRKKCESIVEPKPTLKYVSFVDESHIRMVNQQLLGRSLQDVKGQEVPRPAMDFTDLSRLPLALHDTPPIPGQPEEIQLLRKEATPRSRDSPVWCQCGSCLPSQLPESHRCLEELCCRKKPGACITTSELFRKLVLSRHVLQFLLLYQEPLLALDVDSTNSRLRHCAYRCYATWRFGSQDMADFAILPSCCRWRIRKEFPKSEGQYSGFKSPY
TEST_NAME: Screen Quest Fluo-8 No Wash Calcium Assay (Bz-ATP evoked Ca2+ influx, FLIPR)
Format: cell-based
Parameters: hP2X7 (IC50; nM); other: hP2X7; HEK-293 cells stably transfected with P2X7 receptor, Bz-ATP at EC80, Fluo-8 NW; potency
CONDITION_SET: hP2X7; HEK-293 cells stably transfected with P2X7 receptor, Bz-ATP at EC80, Fluo-8 NW; potency ranges A-D
Protocol: Extracellular binding of Bz-ATP to P2X7 receptor opens the channel and allows Ca2+ influx into the cells. […] Its fluorescence increases upon binding to calcium. HEK-293 cells stably transfected with P2X7 receptor were seeded overnight in growth medium at 10,000 to 20,000 cell/well in 384-well plate. […] Then 10 μL/w of tests compounds and reference antagonist A438079 at 3×-concentration were injected with the […] and the kinetic response over a period of five minutes was monitored. […]

INPUT_SMILES	IC50
O=c1onc(Cc2ccccc2Cl)n1Cc1c(F)cccc1Cl	1000 to 10000 nM
O=c1onc(Cc2cccc(F)c2)n1CC1CCC(F)(F)CC1	200 to 1000 nM
O=c1onc(Cc2cccc(Cl)c2Cl)n1CC1CCC(F)(F)CC1	< 200 nM

###

TARGET_SYSTEM: P2X7 receptor (Homo sapiens)
Sequence (Q99572 1-595): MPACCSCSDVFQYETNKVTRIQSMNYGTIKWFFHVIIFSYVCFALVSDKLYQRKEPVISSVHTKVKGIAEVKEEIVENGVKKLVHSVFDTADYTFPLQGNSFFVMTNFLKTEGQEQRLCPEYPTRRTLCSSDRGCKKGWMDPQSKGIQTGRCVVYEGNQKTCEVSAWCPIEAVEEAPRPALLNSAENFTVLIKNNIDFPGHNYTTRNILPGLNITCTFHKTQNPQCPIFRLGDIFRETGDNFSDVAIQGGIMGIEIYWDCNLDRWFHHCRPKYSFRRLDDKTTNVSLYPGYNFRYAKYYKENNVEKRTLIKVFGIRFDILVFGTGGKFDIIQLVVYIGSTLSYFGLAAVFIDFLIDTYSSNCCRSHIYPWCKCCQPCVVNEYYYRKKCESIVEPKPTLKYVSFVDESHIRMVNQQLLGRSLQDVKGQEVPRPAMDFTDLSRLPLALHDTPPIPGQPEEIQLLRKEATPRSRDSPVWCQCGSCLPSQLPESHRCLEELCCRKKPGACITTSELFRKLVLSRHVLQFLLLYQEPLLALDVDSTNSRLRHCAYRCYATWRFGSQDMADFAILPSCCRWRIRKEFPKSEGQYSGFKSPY
TEST_NAME: Screen Quest Fluo-8 No Wash Calcium Assay (Bz-ATP evoked Ca2+ influx, FLIPR)
Type: cell-based
Design: hP2X7 (IC50; nM); other: hP2X7; HEK-293 cells stably transfected with P2X7 receptor, Bz-ATP at EC80, Fluo-8 NW; potency
CONDITION_SET: hP2X7; HEK-293 cells stably transfected with P2X7 receptor, Bz-ATP at EC80, Fluo-8 NW; potency ranges A-D
// reported IC50 for each item listed

COMPOUND	IC50
O=c1onc(Cc2ccccc2C(F)(F)F)n1Cc1ccc(F)cc1 [Example 105]	1000 to 10000 nM
O=c1onc(Cc2ccc(F)cc2F)n1CC1CCCCC1 [Example 119]	200 to 1000 nM
COc1cccc(Cc2noc(=O)n2CC2CCCCC2)c1 [Example 127]	> 10000 nM
O=c1onc(Cc2c(F)cccc2Cl)n1Cc1ccccc1F [Example 56]	1000 to 10000 nM
Cc1ncsc1Cn1c(Cc2c(F)cccc2Cl)noc1=O [Example 31]	1000 to 10000 nM
CC(c1ccc(F)cc1)n1c(CC2CCC(F)(F)CC2)noc1=O (stereo not drawn) [Example 164]	1000 to 10000 nM
O=c1onc(CC2CCCCC2)n1CC1CCCCC1 [Example 129]	> 10000 nM
O=c1onc(Cc2ccc(F)cc2)n1CC1CCC(F)(F)CC1 [Example 152]	200 to 1000 nM
COc1ccc(Cn2c(Cc3c(F)cccc3Cl)noc2=O)cc1 [Example 68]	1000 to 10000 nM
Cc1nnc(Cn2c(Cc3c(F)cccc3Cl)noc2=O)o1 [Example 41]	> 10000 nM
O=c1onc(Cc2c(F)cccc2Cl)n1Cc1ccc(C(F)(F)F)cc1 [Example 63]	1000 to 10000 nM
O=c1onc(Cc2c(F)cccc2Cl)n1Cc1cccc2ncccc12 [Example 30]	1000 to 10000 nM
Cc1ncccc1Cc1noc(=O)n1Cc1ccc(F)cc1 [Example 216]	1000 to 10000 nM
O=c1onc(Cc2c(F)cccc2Cl)n1Cc1ccncc1 [Example 43]	> 10000 nM
O=c1onc(Cc2c(F)cccc2Cl)n1CC1CCCCO1 (stereo not drawn) [Example 94]	200 to 1000 nM
O=c1onc(Cc2c(F)cccc2Cl)n1Cc1cncs1 [Example 33]	> 10000 nM
O=c1onc(CC2CCC(F)(F)C2)n1Cc1ccc(F)cc1 (stereo not drawn) [Example 204]	> 10000 nM
O=c1onc(Cc2ccccn2)n1Cc1ccc(F)cc1 [Example 104]	> 10000 nM
O=c1onc(Cc2c(F)cccc2Cl)n1CCN1CCC(F)(F)CC1 [Example 181]	200 to 1000 nM
Cc1cc(F)ccc1Cn1c(Cc2c(F)cccc2Cl)noc1=O [Example 25]	< 200 nM
O=c1onc(CC2CCC(F)(F)CC2)n1Cc1cncs1 [Example 193]	1000 to 10000 nM
